system: monomeric cyno Tim3-ECD (cynomolgus)
assay_text: ELISA on cynomolgus Tim3
measured_metric: EC50 (µg/mL)
Please respond with the number in µg/mL and leave the unit unwritten.

binder | value_reported
Tim3_0016MutNQ (antibody, V domains shown, also called Tim3_0016 with HVR-L1 variant 1_NQ) VH: QVTLKESGPGILQPSQTLRLTCSFSGFSLSTSGMSVGWIRQPSGKGLEWLAHIWLNDDVFFNPALKSRLTISKDTSNNQVFLQIASVVTADTATYYCVRANGYLYALDYWGQGTSVTVSS VL: QIVLTQSPAIMSASPGQKVTITCSASSSVQYTQWYQQKLGSSPKLWIYDAFKLAPGVPARFSGSGTGTSYSLTISSMEAEDAASYFCHQWSSYPWTFGGGTKLEIK | 0.0083
Tim3_0016MutNS (antibody, V domains shown, also called Tim3_0016 with HVR-L1 variant 2_NS) VH: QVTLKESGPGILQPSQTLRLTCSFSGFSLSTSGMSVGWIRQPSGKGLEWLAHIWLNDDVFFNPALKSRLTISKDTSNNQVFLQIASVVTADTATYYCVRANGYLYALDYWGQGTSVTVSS VL: QIVLTQSPAIMSASPGQKVTITCSASSSVSYTQWYQQKLGSSPKLWIYDAFKLAPGVPARFSGSGTGTSYSLTISSMEAEDAASYFCHQWSSYPWTFGGGTKLEIK | 0.0097
Tim3_0018MutNS (antibody, V domains shown, also called Tim3_0016 variant (0018) with HVR-L1 variant 2_NS) VH: QVTLKESGPGILQPSQTLSLTCSFSGFSLSTSGMSVGWIRQPSGKGLEWLAHIWLNDDVFFNPALKRRLTISKDTSNNQVFLQIASVVTADTATYYCVRANGYLYALDYWGQGISVTVSS VL: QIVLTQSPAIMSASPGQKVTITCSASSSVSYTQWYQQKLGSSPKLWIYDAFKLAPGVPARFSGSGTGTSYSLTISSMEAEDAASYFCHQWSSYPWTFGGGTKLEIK | 0.0119

Now, please, on to the next binder.
Give the value of EC50 reported for the following: Tim3_0018MutNQ (antibody, V domains shown, made in HEK293; also called Tim3_0016 variant (0018) with HVR-L1 variant 1_NQ) VH: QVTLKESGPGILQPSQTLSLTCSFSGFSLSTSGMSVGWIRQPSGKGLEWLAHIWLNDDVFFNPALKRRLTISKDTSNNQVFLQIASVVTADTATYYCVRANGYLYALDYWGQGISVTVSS VL: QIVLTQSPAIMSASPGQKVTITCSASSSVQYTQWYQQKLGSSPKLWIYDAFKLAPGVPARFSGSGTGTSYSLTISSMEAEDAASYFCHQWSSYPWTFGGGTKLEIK
0.0132
